SYSTEM: TRPC5 (Homo sapiens, UniProt Q9UL62)
Construct: expressed in transfected cells; host or cells: HEK 293
Sequence (Q9UL62 1-973): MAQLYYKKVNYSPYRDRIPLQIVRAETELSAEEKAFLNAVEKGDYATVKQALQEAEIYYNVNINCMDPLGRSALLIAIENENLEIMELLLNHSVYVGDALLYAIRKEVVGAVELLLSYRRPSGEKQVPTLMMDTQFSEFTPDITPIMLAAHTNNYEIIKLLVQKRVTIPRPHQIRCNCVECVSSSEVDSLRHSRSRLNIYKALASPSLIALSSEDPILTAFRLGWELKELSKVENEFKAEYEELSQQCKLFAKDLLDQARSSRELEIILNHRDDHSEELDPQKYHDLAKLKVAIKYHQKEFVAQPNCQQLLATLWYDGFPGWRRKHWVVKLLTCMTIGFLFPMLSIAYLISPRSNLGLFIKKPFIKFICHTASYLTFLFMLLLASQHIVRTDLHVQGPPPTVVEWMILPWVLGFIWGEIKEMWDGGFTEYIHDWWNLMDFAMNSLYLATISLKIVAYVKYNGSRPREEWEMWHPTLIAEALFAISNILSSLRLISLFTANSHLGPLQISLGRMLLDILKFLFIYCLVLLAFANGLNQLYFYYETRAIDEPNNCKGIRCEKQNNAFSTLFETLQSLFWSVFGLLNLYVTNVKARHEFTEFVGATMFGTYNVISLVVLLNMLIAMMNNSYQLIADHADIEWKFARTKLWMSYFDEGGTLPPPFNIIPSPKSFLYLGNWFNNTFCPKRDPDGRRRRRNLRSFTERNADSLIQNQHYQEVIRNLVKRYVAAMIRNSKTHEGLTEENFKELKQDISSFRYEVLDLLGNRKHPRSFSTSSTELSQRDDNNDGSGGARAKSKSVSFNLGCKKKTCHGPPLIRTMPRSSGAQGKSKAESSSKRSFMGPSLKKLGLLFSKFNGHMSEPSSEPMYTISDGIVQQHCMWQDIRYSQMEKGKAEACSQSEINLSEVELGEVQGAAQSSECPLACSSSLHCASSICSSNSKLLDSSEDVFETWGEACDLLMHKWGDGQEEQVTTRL
EXPERIMENT NOTES: TRPC5 automated patch clamp assay (Qpatch), current block after rosiglitazone stimulation
Assay type: cell-based
ASSAY SETUP: Table 3; HEK293 cells overexpressing TRPC5; rosiglitazone stimulation; 100 mV; read-out: TRPC5_QP_ XC50_100
pIC50: −log10 of the molar value.
REPORTED PROPERTY: pIC50

`Cn1nccc1CN1CCN(c2cn[nH]c(=O)c2Br)CC1` tested on TRPC5 (Homo sapiens, UniProt Q9UL62) gave pIC50: 5.00 to 5.30

Test item `Cc1ccccc1CN1CCN(c2cn[nH]c(=O)c2OC2CCCC2)CC1=O` ; TRPC5 (Homo sapiens, UniProt Q9UL62); reported pIC50 was 5.00 to 5.30

Given the compound `Cc1ccccc1CN1CCN(c2cn[nH]c(=O)c2N2CCOCC2)CC1=O` and test system TRPC5 (Homo sapiens, UniProt Q9UL62), the measured pIC50 is 3.30 to 5.00

Tested on TRPC5 (Homo sapiens, UniProt Q9UL62): `Cc1ccccc1CN1CCN(c2cn[nH]c(=O)c2C2=CCOCC2)CC1=O` . Observed pIC50: 3.30 to 5.00

Measured pIC50 for this entry `Cc1ccccc1CN1CC2(C1)CN(c1cn[nH]c(=O)c1Br)C2` on TRPC5 (Homo sapiens, UniProt Q9UL62): 3.30 to 5.00

Tested on TRPC5 (Homo sapiens, UniProt Q9UL62), the item `O=C1CN(c2cn[nH]c(=O)c2Cl)CCN1Cc1c(F)cccc1F` showed pIC50 equal to 5.30 to 6.00

Lab entry: TRPC5 (Homo sapiens, UniProt Q9UL62) assay, compound O=C1CN(c2cn[nH]c(=O)c2Cl)CCN1Cc1ccccc1OC(F)(F)F [drawing 689] , pIC50 = 6.00 to 11.00

`Cc1cc(F)ccc1CN1CCN(c2cn[nH]c(=O)c2Br)CC1=O` tested on TRPC5 (Homo sapiens, UniProt Q9UL62) gave pIC50: 5.30 to 6.00

TRPC5 (Homo sapiens, UniProt Q9UL62) assay, compound `Cn1ccnc1CN1CCN(c2cn[nH]c(=O)c2Br)CC1` , recorded pIC50 = 3.30 to 5.00

Where these numbers come from: patent US20260184708A1
